From: the supplement of paper PMC10567573

Here, each record is paired with measured protein stability index data.
B1: CAMK2D (parent)
chain: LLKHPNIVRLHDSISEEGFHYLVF

Variants of: B1
Experiment: protein stability index of a GFP-peptide fusion (GPS, HEK-293T) (PSI 1-6); higher = more stable;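 note: lentivirally expressed fusions sorted by FACS into six bins by GFP to DsRed ratio, PSI derived from sequencing read proportions per bin multiplied by bin number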
Conditions: c terminus: a fixed tail appended
Give the figure only, with no unit attached.

F19Y; 2.08

Noted for `F24K` : its protein stability index reads 1.71

# protein stability index of `S15E` = 2.57
